# procedure_text: PC3M Cytotoxicity Assay for Compounds that Inhibit the Perinuclear Compartment: Chemistry Optimization Followup
# run_conditions: PC3M-GFP viability, ATPLite luminescence, 24 h; series mostly up to 46.1 µM
Records with an inconclusive call do not appear. Activity calls are given as the source filed them. Calls follow the shape of the dose curve; as a rule, active = well fitted cell-killing curve with a large enough effect; inconclusive = small, poorly fitted or top-dose-only effect; inactive = flat fitted curve, though single readings scatter.
Examples of molecules with documented Potency follow.

{"smi": "COC(Cn1cnc2c(c(-c3ccccc3)c(-c3ccccc3)n2CCc2ccccc2)c1=N)OC", "Potency": "17.7 µM (active)"}
{"smi": "C[C@H]([C@@H](O)c1ccccc1)n1cnc2c(c(-c3ccccc3)c(-c3ccccc3)n2Cc2ccccc2)c1=N", "Potency": "15.8 µM (active)"}
{"smi": "CN(C)CCn1cnc2c(c(-c3ccccc3)c(-c3ccccc3)n2CCc2ccccc2)c1=N", "Potency": "15.8 µM (active)"}
{"smi": "COCCn1cnc2c(c(-c3ccccc3)c(-c3ccccc3)n2CCc2ccccc2)c1=N", "Potency": "15.8 µM (active)"}
{"smi": "N=c1c2c(-c3ccccc3)c(-c3ccccc3)n(CCc3ccccc3)c2ncn1CCCCCO", "Potency": "17.7 µM (active)"}

###

# procedure_text: PC3M Cytotoxicity Assay for Compounds that Inhibit the Perinuclear Compartment: Chemistry Optimization Followup
# run_conditions: PC3M-GFP viability, ATPLite luminescence, 24 h; series mostly up to 46.1 µM
Inconclusive results are not listed. Active and inactive are the calls of the source. The call rests on the fitted dose curve; in most records, active means well fitted cell-killing curve with a large enough effect; inconclusive means small, poorly fitted or top-dose-only effect; inactive means flat fitted curve, though single readings scatter.
Examples of compounds with documented Potency follow.

{"compound": "COc1ccc(Cn2c(-c3ccccc3)c(-c3ccccc3)c3c(=N)n(CCCCCO)cnc32)cc1", "Potency": "15.8 µM (active)"}
{"compound": "CN(C)CCCn1cnc2c(c(-c3ccccc3)c(-c3ccccc3)n2Cc2ccccc2)c1=N", "Potency": "25 µM (active)"}
{"compound": "N=c1c2c(-c3ccccc3)c(-c3ccccc3)n(CCc3ccccc3)c2ncn1[C@H](CO)Cc1ccccc1", "Potency": "19.9 µM (active)"}
{"compound": "COc1ccc(Cn2c(-c3ccccc3)c(-c3ccccc3)c3c(=N)n(CCCCO)cnc32)cc1", "Potency": "12.5 µM (active)"}
{"compound": "COc1ccc(Cn2c(-c3ccccc3)c(-c3ccccc3)c3c(=N)n(CC4CCCO4)cnc32)cc1 (centres undefined)", "Potency": "19.9 µM (active)"}
{"compound": "N=c1c2c(-c3ccccc3)c(-c3ccccc3)n(CCc3ccccc3)c2ncn1CC1CCCO1 (centres undefined)", "Potency": "11.2 µM (active)"}
{"compound": "CN(C)CCn1cnc2c(c(-c3ccccc3)c(-c3ccccc3)n2Cc2ccccc2)c1=N", "Potency": "17.7 µM (active)"}
{"compound": "N=c1c2c(-c3ccccc3)c(-c3ccccc3)n(CCc3ccccc3)c2ncn1CCCO", "Potency": "15.6 µM (active)"}
{"compound": "N=c1c2c(-c3ccccc3)c(-c3ccccc3)n(CCc3ccccc3)c2ncn1C1CCC(O)CC1 (centres undefined)", "Potency": "17.7 µM (active)"}
